System: 276233-004-R-J1-PDC complex spheroid viability;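 note: spheroids exposed to drugs for seven days; 100% = DMSO vehicle control viability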
Experiment: Anticancer human tumor 276233-004-R-J1-PDC patient-derived colon adenocarcinoma cell line growth inhibition [GQUAD]
Conditions: second compound 0.316 µM; first compound 0.1 µM; active compounds read low
metric: viability, T/C (%)
Write down the numeric answer in % and omit the unit.

Entry C#Cc1c(F)ccc2cc(O)cc(-c3ncc4c(N5CC6CCC(C5)N6)nc(OCC56CCCN5CC(F)C6)nc4c3F)c12 (stereo unspecified) + Cc1[nH]c2ccc(F)cc2c1-c1nc2c3cccnc3c3ncccc3c2[nH]1 , viability, T/C reported as 67.4

Entry CCCS(=O)(=O)Nc1ccc(F)c(C(=O)c2c[nH]c3ncc(-c4ccc(Cl)cc4)cc23)c1F + CN(C)c1ccc(Nc2c3ccc(NC(=O)CCN4CCCC4)cc3nc3cc(NC(=O)CCN4CCCC4)ccc23)cc1 , viability, T/C reported as 64.3

Entry O=C(c1cc(Cc2n[nH]c(=O)c3ccccc23)ccc1F)N1CCN(C(=O)C2CC2)CC1 + Cc1[nH]c2ccc(F)cc2c1-c1nc2c3cccnc3c3ncccc3c2[nH]1 , viability, T/C reported as 86.2

Entry CC(C)(O)C1CCC(Nc2ccc3ncc(-c4cccc(C(F)(F)F)c4)n3n2)CC1 (stereo unspecified) + Cc1[nH]c2ccc(F)cc2c1-c1nc2c3cccnc3c3ncccc3c2[nH]1 , viability, T/C reported as 61

Entry Cc1cccc(N(C)C(=O)C2C(O)CCN2c2nc(C)cc(C(F)(F)F)c2C#N)c1 (stereo unspecified) + CN(C)c1ccc(Nc2c3ccc(NC(=O)CCN4CCCC4)cc3nc3cc(NC(=O)CCN4CCCC4)ccc23)cc1 , viability, T/C reported as 75.4

Entry CC1COCCN1c1cc(-c2ccnn2C)c2ccnc(-c3ccn[nH]3)c2n1 (stereo unspecified) + Cc1cnc(CNC(=O)c2c(=O)c3ccc(N4CCCN(C)CC4)nc3n3c2sc2ccccc23)cn1 , viability, T/C reported as 67.1

Entry CC(C)(O)C1CCC(Nc2ccc3ncc(-c4cccc(C(F)(F)F)c4)n3n2)CC1 (stereo unspecified) + CN(C)c1ccc(Nc2c3ccc(NC(=O)CCN4CCCC4)cc3nc3cc(NC(=O)CCN4CCCC4)ccc23)cc1 , viability, T/C reported as 55.4

Entry COc1cccc2c1C(=O)c1c(O)c3c(c(O)c1C2=O)CC(O)(C(=O)CO)CC3OC1CC(N)C(O)C(C)O1 (stereo unspecified) + Cc1cnc(CNC(=O)c2c(=O)c3ccc(N4CCCN(C)CC4)nc3n3c2sc2ccccc23)cn1 , viability, T/C reported as 92.3

Entry COc1ccc([C@@H](O)c2cc(-c3ncnc4cc(N5CCOCC5)ccc34)c(F)cc2Cl)nn1 + Cc1cnc(CNC(=O)c2c(=O)c3ccc(N4CCCN(C)CC4)nc3n3c2sc2ccccc23)cn1 , viability, T/C reported as 87.7

Entry O=c1[nH]cc(F)c(=O)[nH]1 + Cc1[nH]c2ccc(F)cc2c1-c1nc2c3cccnc3c3ncccc3c2[nH]1 , viability, T/C reported as 91.2

Entry CCCS(=O)(=O)Nc1ccc(F)c(C(=O)c2c[nH]c3ncc(-c4ccc(Cl)cc4)cc23)c1F + Cc1cnc(CNC(=O)c2c(=O)c3ccc(N4CCCN(C)CC4)nc3n3c2sc2ccccc23)cn1 , viability, T/C reported as 99.1
